# System: Plasmodium falciparum
# assay.name: Antimalarial activity: Asexual Blood Stage Plasmodium falciparum Dd2 IC50 (uM)
# Type: functional, organism-based
reported.endpoint: IC50 (nM)
# value in nM; strip the unit string

# IC50 (molecule: Cc1noc(C)c1C(=O)N1CCCC(c2[nH]c3c(C)cccc3c2-c2ccncc2)C1 (stereo not given) ) is 740

# IC50 (molecule: CC(C(=O)N1CCCC1)N1CCN(S(=O)(=O)c2ccc(C(C)(C)C)cc2)CC1 (stereo not given) ) is 1330

# IC50 (molecule: Cc1cc(C)n2nc(C(=O)Nc3cc(C(F)(F)F)ccc3N3CCOCC3)nc2n1 ) is 220

# IC50 (molecule: O=C(C(Cc1c[nH]c2ccccc12)NS(=O)(=O)c1ccc(Cl)cc1)N1CCCCC1 (stereo not given) ) is 2000

# IC50 (molecule: CC1CC1C(=O)NC1CCN(CC2(c3ccccc3)CCCCC2)CC1 (stereo not given) ) is 920

# IC50 (molecule: Cc1c[nH]c(CCNC(=O)c2cc(-c3ccc(Cl)cc3)cs2)n1 ) is 2020

# IC50 (molecule: CCOc1ccc(-c2nc(NC(=O)CS(=O)(=O)c3ccccc3)sc2C)cc1 ) is 1800

# IC50 (molecule: O=C1Nc2ccc(Br)cc2C12NCCc1c2[nH]c2ccccc12 (stereo not given) ) is 410

# IC50 (molecule: CNC(=O)C1Cc2c([nH]c3cc(Cl)ccc23)C2(CCN(CCc3ccccc3)CC2)N1 (stereo not given) ) is 1950

====

# Tested on: MRC5
# assay.name: MRC5 CC50 (uM) Cytotoxicity
# Assay type: functional
# applied.conditions: Homo sapiens
reported.endpoint: CC50

# CC50 (compound: N=C(N)c1ccc(-c2cc(-c3ccccc3)on2)cc1 ) is 12.2 µM

# CC50 (compound: Clc1ccc(Cl)c(CO[C@H]2CCCC[C@@H]2n2ccnc2)c1 ) is > 32 µM

# CC50 (compound: O=C(Nc1ccc(F)c(-c2nc3cc(-c4ccccc4)cnc3[nH]2)c1)N1CCCC1 ) is 0.4 µM

# CC50 (compound: Clc1ccc(CN2CCN(C3=NCCN3)CC2)cc1Cl ) is > 64 µM

# CC50 (compound: O=C(NCc1nnc2n1CCCCC2)c1ccc(-c2ccc(F)cc2)o1 ) is > 64 µM

# CC50 (compound: c1ccc(-c2[nH]c3ccccc3c2C(c2ccccn2)N2CCCC2)cc1 (centres undefined) ) is 86 µM

# CC50 (compound: CCC(=O)Nc1ccccc1C(=O)Nc1ccccn1 ) is > 64 µM

# CC50 (compound: COc1cc(C2=NCCN2)ccc1-n1cc(-c2cccc(C3=NCCN3)c2)nn1 ) is > 32 µM

# CC50 (compound: Cc1[nH]c2ccccc2c1C(c1cccs1)N1CCN(C)CC1 (centres undefined) ) is > 20 µM

# CC50 (compound: COc1ccc(C(=N)N)cc1-c1cn(-c2ccc(C(=N)N)cc2)nn1 ) is > 32 µM

# CC50 (compound: CNc1cc(C)nc(C2CN(C(=O)c3n[nH]c4ccccc34)CCO2)c1 (centres undefined) ) is > 64 µM

# CC50 (compound: Cc1ncc(-c2ccnc(Nc3ccc(S(C)(=O)=O)cc3)n2)n1C(C)C ) is 1 µM

# CC50 (compound: O=C(NCCN1CCCC1)c1cc(NCCN2CCOCC2)nc2ccc(Cl)cc12 ) is 33.5 µM

# CC50 (compound: COc1ccc(-c2cnc3cnc(-c4cccc(OC(C)C)c4)cn23)cc1 ) is 40.1 µM

# CC50 (compound: c1cc(C2=NCCN2)cc(-c2cc(-c3ccc(C4=NCCN4)cc3)no2)c1 ) is > 32 µM

# CC50 (compound: c1ccc(Oc2ccc(-c3cc(N4CCOCC4)[nH]n3)cc2)cc1 ) is > 32 µM

# CC50 (compound: N=C(N)Nc1ccc(-c2ccc(-c3ccc(NC(=N)N)cc3Cl)o2)c(Cl)c1 ) is 11.6 µM

# CC50 (compound: CC(C)(C)OC(=O)N1CCN(c2cc(-c3ccc(Oc4ccccc4)cc3)n[nH]2)CC1 ) is > 32 µM

# CC50 (compound: CC1COC(Cn2cncn2)(c2ccc(Oc3ccc(Cl)cc3)cc2Cl)O1 (centres undefined) ) is 30.9 µM

# CC50 (compound: CO/C=C(/C(=O)OC)c1ccccc1Oc1cc(Oc2ccccc2C#N)ncn1 ) is > 28 µM

# CC50 (compound: CO/N=C(\C(=O)OC)c1ccccc1CO/N=C(\C)c1cccc(C(F)(F)F)c1 ) is > 64 µM

# CC50 (compound: COc1cc(C2=NCCN2)cc2cc(-c3ccc(C4=NCCN4)cc3)oc12 ) is > 32 µM

# CC50 (compound: CC(c1cc(Cl)cc(Cl)c1)N(C)c1ncc2c(N)nc(N)nc2n1 (centres undefined) ) is 5.9 µM

# CC50 (compound: Clc1cccc(CO[C@H]2CCc3ccccc3[C@@H]2n2ccnn2)c1 ) is > 32 µM

# CC50 (compound: COc1ccc(-c2nnc3ccc(-c4cccc(C(C)C)c4)cn23)cc1OC ) is 18.6 µM

# CC50 (compound: CS(=O)(=O)c1ccccc1C(=O)N(Cc1ccccc1)c1ccccc1 ) is > 64 µM

# CC50 (compound: COc1cc(C2=NCCN2)ccc1-c1cn(-c2cccc(C3=NCCN3)c2)nn1 ) is > 32 µM

# CC50 (compound: CC(C)(C)C(O)C(Oc1ccc(-c2ccccc2)cc1)n1cncn1 (centres undefined) ) is > 64 µM

# CC50 (compound: Cc1ccc(S(=O)(=O)Nc2ccc(CN3CCN(C(=O)c4cccc(C#N)c4)CC3)cc2)cc1 ) is > 64 µM

# CC50 (compound: CNC(=O)C1Cc2ccccc2N1C(=O)Cc1ccc(F)cc1 (centres undefined) ) is > 64 µM

# CC50 (compound: COc1ccc(-c2onc(C(F)(F)F)c2-c2ccc(Cl)cc2)c(O)c1 ) is 8.3 µM

# CC50 (compound: O=C(CN1CCOCC1)Nc1ccc2ncnc(Nc3ccc(OCc4cccc(F)c4)c(Cl)c3)c2c1 ) is 6.4 µM

# CC50 (compound: CNC(=O)c1nn(C)c2c1C(C)(C)Cc1cnc(Nc3ccc(N4CCN(C)CC4)cc3)nc1-2 ) is 1.1 µM

# CC50 (compound: CNCCC(Oc1ccc(C(F)(F)F)cc1)c1ccccc1 (centres undefined) ) is 11.4 µM
